# assay protocol: qHTS assay to identify small molecule antagonists of the thyroid receptor (TR) signaling pathway - cell viability counter screen (AID 743064); note: nearly all actives have a fitted effect of over 50% in size
# assay setup: GH3.TRE-Luc viability, CellTiter-Fluor, 24 h; series mostly up to 70.3 µM
Inconclusive results are not listed. Active and inactive are the calls of the source. Calls come from the whole dose curve; as a rule, active = well fitted cell-killing curve with a large enough effect in the repeat runs; inconclusive = weak or mixed curves, or effect the other way; inactive = no such curve, though single readings can be large or run the other way.
quantity kind: outcome

Completed entries (count: 8):
| molecule | quantity kind | test value |
| --- | --- | --- |
| CC1(C)[C@@H]2CC[C@@]1(C)[C@H](O)C2 | outcome | inactive |
| CC(=O)Oc1cccc(C)c1 | outcome | inactive |
| CCCCCC(=O)OCCc1ccccc1 | outcome | inactive |
| CCOC(=O)OC(C)OC1=C(C(=O)Nc2ccccn2)N(C)S(=O)(=O)c2ccccc21 (stereo unspecified) | outcome | inactive |
| CC(C)CC(C)(N)C#N (stereo unspecified) | outcome | inactive |
| COc1ccc2cc1Oc1cc3c(cc1OC)CC[N+](C)(C)[C@H]3Cc1ccc(cc1)Oc1c(OC)c(OC)cc3c1[C@@H](C2)[N+](C)(C)CC3 | outcome | inactive |
| C=CCOCC(O)CO (stereo unspecified) | outcome | inactive |
| C[C@@H]1C[C@H]2[C@@H]3C[C@H](F)C4=CC(=O)C(Cl)=C[C@]4(C)[C@@]3(F)[C@@H](O)C[C@]2(C)[C@@]1(O)C(=O)CO | outcome | inactive |

outcome for O=C(O)CNC(=O)c1ccc(CO)o1 is inactive

Record summary for CC(CC=O)CC(C)(C)C (stereo unspecified) : reported outcome = inactive

Reported outcome ( COc1cc(-c2ccc(=O)[nH]n2)ccc1OC(F)F ) = inactive

Lab book: outcome of CC(C)(C)c1ccc(-c2ccc(C(C)(C)C)cc2)cc1 noted as inactive

// field: outcome; key: CCCCS(=O)(=O)N[C@@H](Cc1ccc(OCCCCC2CCNCC2)cc1)C(=O)O ; value = inactive

outcome reported for this molecule CC(C)(N)C#N : inactive

The value of outcome measured for the molecule Nc1ccncc1N turned out to be inactive

Record CC(C)(C#N)Nc1nc(Cl)nc(NC2CC2)n1 . Reported outcome: inactive

outcome reading for CO[C@@]1(NC(=O)C(C(=O)O)c2ccc(O)cc2)C(=O)N2C(C(=O)O)=C(CSc3nnnn3C)CO[C@@H]21 (stereo partly specified) : inactive

The value of outcome measured for the molecule CC(C)C1CCC(O)CC1 (stereo unspecified) turned out to be inactive

Measured outcome, CCCc1ncc(C[n+]2ccccc2C)c(N)n1 : inactive

====

# tested target: Cytochrome P450 1A2 (Homo sapiens) (UniProt P05177)
# Sequence (P05177 whole entry, looked up): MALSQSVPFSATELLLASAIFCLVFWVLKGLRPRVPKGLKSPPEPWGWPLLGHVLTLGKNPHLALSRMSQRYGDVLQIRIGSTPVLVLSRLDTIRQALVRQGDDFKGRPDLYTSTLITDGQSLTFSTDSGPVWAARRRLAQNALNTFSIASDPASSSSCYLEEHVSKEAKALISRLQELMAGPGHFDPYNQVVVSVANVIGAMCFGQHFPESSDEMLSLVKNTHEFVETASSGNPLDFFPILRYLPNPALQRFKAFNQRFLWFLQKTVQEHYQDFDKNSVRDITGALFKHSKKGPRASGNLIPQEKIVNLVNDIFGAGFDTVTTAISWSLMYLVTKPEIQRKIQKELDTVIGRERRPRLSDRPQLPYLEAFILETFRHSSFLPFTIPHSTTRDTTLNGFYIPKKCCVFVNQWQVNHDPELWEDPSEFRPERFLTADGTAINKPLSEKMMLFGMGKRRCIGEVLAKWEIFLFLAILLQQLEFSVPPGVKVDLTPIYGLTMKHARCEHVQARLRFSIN
# assay protocol: Cytochrome P450 Family 1 Subfamily A Member 2 (CYP1A2) small molecule antagonists: luciferase reporter qHTS assay (AID 1671199); note: nearly all actives have a fitted effect of over 50% in size
# assay setup: P450-Glo CYP1A2 enzyme, luciferin luminescence, 1 h; series mostly up to 53 µM
Results filed as inconclusive are left out. Active and inactive are the calls of the source. The call rests on the fitted dose curve; in most records, active means well fitted inhibition curve with a large enough effect in the repeat runs; inconclusive means weak or mixed curves; inactive means no such curve, though single readings can be large or run the other way.
Respond only with the outcome that fits, drawn from True (active), False (inactive)

These recorded examples may help you get a feel for the data.
| molecule | tested target | answer label |
| --- | --- | --- |
| CCCc1nn(C)c2c(=O)[nH]c(-c3cc(S(=O)(=O)N4CCN(C)CC4)ccc3OCC)nc12 | Cytochrome P450 1A2 (Homo sapiens) (UniProt P05177) | False |
| CO/N=C(\C(=O)N[C@@H]1C(=O)N2C(C(=O)O)=C(CSc3nc(=O)c(O)nn3C)CS[C@H]12)c1csc(N)n1 | Cytochrome P450 1A2 (Homo sapiens) (UniProt P05177) | False |
| NC(CCC(=O)O)C(=O)O (stereo not given) | Cytochrome P450 1A2 (Homo sapiens) (UniProt P05177) | False |
| CCCCOCCOC(=O)COc1cc(Cl)c(Cl)cc1Cl | Cytochrome P450 1A2 (Homo sapiens) (UniProt P05177) | True |
| CC(C#N)(CCC(=O)O)N=NC(C)(C#N)CCC(=O)O (stereo not given) | Cytochrome P450 1A2 (Homo sapiens) (UniProt P05177) | False |
| CC[N+](CC)(CC(=O)Nc1c(C)cccc1C)Cc1ccccc1 (tested in a mixture with another compound) | Cytochrome P450 1A2 (Homo sapiens) (UniProt P05177) | False |
| Cc1ncc([C@@H](CCCCCCc2ccc3c(n2)NCCC3)CC(=O)O)cn1 | Cytochrome P450 1A2 (Homo sapiens) (UniProt P05177) | False |
| CN1CCN(c2cc3c(nn2)Oc2ccccc2N3C)CC1 | Cytochrome P450 1A2 (Homo sapiens) (UniProt P05177) | False |

Recorded call for CCN(C=O)CC ? False

Recorded call for CC1CCC(CO)CC1 (stereo not given) ? False

Recorded test call requested for COc1ccccc1OCC1CNC(=O)O1 (stereo not given) False

Ref: PubChem BioAssay (Tox21)
